assay: Selectivity ratio of cytotoxicity to human KB cells to antimalarial activity against Plasmodium falciparum; format: cell-based
assay readout: selectivity ratio
Reply: number alone, nothing else.

Ask: Requested read-out: selectivity ratio. Entry: CC[C@](C)(O)C(=O)O[C@H]1C(=O)O[C@@H]2C[C@H]3C(C)=CC(=O)[C@@H](O)[C@]3(C)[C@H]3[C@@]4(O)OC[C@]32[C@@H]1[C@@H](C)[C@H]4O
Result: 285
